# System: CCRIS mutagenicity, Ames/micronucleus/aberration tests
# experimentDescription: CCRIS mutagenicity studies
# statedConditions: Test System: AMES SALMONELLA TYPHIMURIUM; Strain/Indicator: TA98; Metabolic Activation: RAT, LIVER, S-9, AROCLOR 1254; Method: PREINCUBATION
Active and inactive are the calls of the source. The rule behind the calls is not given here.
observationType: mutagenic call

Example entries and their recorded answers appear below.
CC(=O)Nc1ccc(Oc2ccc(N(O)C=O)cc2)cc1 : active; positive
O=CCC=O : inactive; negative
COc1ccccc1O : inactive; negative
O=[N+]([O-])c1ccc2c3c1ccc1cccc(c13)[C@@H](O)[C@@H]2O : active; positive
Clc1ccc(Cl)c(Cl)c1Cl : inactive; negative

q: // returns reported mutagenic call for input Cc1c([N+](=O)[O-])c(C)c([N+](=O)[O-])c(C(C)(C)C)c1[N+](=O)[O-]
a: inactive; negative

q: // returns reported mutagenic call for input O=NN(CC(=O)O)CC1(O)OCC(O)C(O)C1O (configuration not stated)
a: inactive; negative

q: // returns reported mutagenic call for input CC1(C)C(=O)N(Cl)C(=O)N1Cl
a: inactive; negative

###

# Test system: CCRIS mutagenicity, Ames/micronucleus/aberration tests
# experimentDescription: CCRIS mutagenicity studies
# statedConditions: Test System: AMES SALMONELLA TYPHIMURIUM; Strain/Indicator: TA98; Metabolic Activation: RAT, LIVER, S-9, KC 500; Method: PREINCUBATION
Calls of active or inactive are those of the source. No rule for the calls is given here.
observationType: mutagenic call

Example entries and their recorded answers appear below.
CCCCCCCCCCCCCCCCCC(=O)NCCNC(=O)CCCCCCCCCCCCCCCCC : inactive; negative
O=C=Nc1ccc(Cc2ccc(N=C=O)cc2)cc1 : inactive; negative
[O]=[Ce]=[O] : inactive; negative
CCCCOC(C)=O : inactive; negative
CCCCC(CC)CO (centres undefined) : inactive; negative

q: // returns reported mutagenic call for input F[B-](F)(F)F
a: inactive; negative

q: // returns reported mutagenic call for input O=S1(=O)CCCC1
a: inactive; negative

q: // returns reported mutagenic call for input Cc1cc(N)c(S(=O)(=O)O)cc1Cl
a: inactive; negative

q: // returns reported mutagenic call for input CCCCCCCCCCCCO
a: inactive; negative

###

# Test system: CCRIS mutagenicity, Ames/micronucleus/aberration tests
# experimentDescription: CCRIS mutagenicity studies
# statedConditions: Test System: AMES SALMONELLA TYPHIMURIUM; Strain/Indicator: TA100; Metabolic Activation: RAT, LIVER, S-9, AROCLOR; Method: STANDARD PLATE
Activity calls are given as the source filed them. No rule for the calls is given here.
observationType: mutagenic call

O=[N+]([O-])c1c(Cl)c(Cl)c2c(c1Cl)Oc1cc(Cl)c(Cl)cc1O2 : active; positive
CC(C)(C)c1ccc(/C=C/c2ccc(N)cc2)cc1 : inactive; negative
CCCCO : inactive; negative
C=CCCCCCCCCCCCC : inactive; negative

q: // returns reported mutagenic call for input Cc1ccc(/C=C/c2ccc([N+](=O)[O-])cc2)cc1
a: active; positive

###

# System: CCRIS mutagenicity, Ames/micronucleus/aberration tests
# experimentDescription: CCRIS mutagenicity studies
# statedConditions: Test System: AMES SALMONELLA TYPHIMURIUM; Strain/Indicator: TA104; Metabolic Activation: NONE
Active and inactive are the calls of the source. How the calls were made is not given here.
Permitted responses: active, inactive

O=[N+]([O-])c1cc2ccc3cccc4ccc(c1)c2c34 : active
CCCCCC(O)/C=C/C=O (centres undefined) : inactive

q: # outcome recorded in this test, key = Cc1cccc(Nc2cc(Cl)nc(SCC(=O)O)n2)c1C
a: inactive

q: # outcome recorded in this test, key = O=[N+]([O-])c1ccc(-c2ccccc2)cc1
a: inactive

###

# Test system: CCRIS mutagenicity, Ames/micronucleus/aberration tests
# experimentDescription: CCRIS mutagenicity studies
# statedConditions: Test System: AMES SALMONELLA TYPHIMURIUM; Strain/Indicator: TA1538; Metabolic Activation: RAT LIVER S-9, PHENOBARBITAL AND BETA-NAPHTHOFLAVONE; Method: PREINCUBATION
Calls of active or inactive are those of the source. No rule for the calls is given here.
Permitted responses: active, inactive

A selection of reference data follows.
CCN(Cc1ccccc1)c1ccccc1 : inactive
Clc1ccc(C(Cl)(Cl)Cl)cc1 : inactive
Nc1cccc2cccc(S(=O)(=O)O)c12 : active
N=C(N)N : inactive
COC(=O)c1ccc(C(=O)OC)cc1 : inactive
CC(Br)C(=O)O (stereo not drawn) : inactive
[O-][Cl+3]([O-])([O-])O : inactive

Below: the item to evaluate.
q: # outcome recorded in this test, key = C1CN(SSN2CCOCC2)CCO1
a: inactive

###

# Tested on: CCRIS mutagenicity, Ames/micronucleus/aberration tests
# experimentDescription: CCRIS mutagenicity studies
# statedConditions: Test System: AMES SALMONELLA TYPHIMURIUM; Strain/Indicator: TA100; Metabolic Activation: NONE; Method: PREINCUBATION
Active and inactive are the calls of the source. How the calls were made is not given here.
Permitted responses: active, inactive

A selection of reference data follows.
CN(C)c1ccc(/C=C/C=O)cc1 : inactive
O=C1c2c(O)ccc([N+](=O)[O-])c2C(=O)c2c([N+](=O)[O-])ccc(O)c21 : active
CCOC(=O)N(N=O)C(CCC=O)c1cccnc1 (stereo not given) : active
CC1=C[C@]2(O[C@@H]3O[C@H](CO)[C@@H](O)[C@H](O)[C@H]3O)C[C@@H](C)C(=O)[C@@H]2[C@](C)(O)C12CC2 : active

q: # outcome recorded in this test, key = CC(C)(c1cc(Br)c(O)c(Br)c1)c1cc(Br)c(O)c(Br)c1
a: inactive

###

# Test system: CCRIS mutagenicity, Ames/micronucleus/aberration tests
# experimentDescription: CCRIS mutagenicity studies
# statedConditions: Test System: AMES SALMONELLA TYPHIMURIUM; Strain/Indicator: TA97; Metabolic Activation: RAT, LIVER, S-9, AROCLOR 1254 (30%); Method: PREINCUBATION
Calls of active or inactive are those of the source. The rule behind the calls is not given here.
observationType: mutagenic call

Example entries and their recorded answers appear below.
COC[CH2][Hg][Cl] : inactive; negative
S=c1nc[nH]c2nc[nH]c12 : inactive; negative
CC(CCl)OP(=O)(OC(C)CCl)OC(C)CCl (stereo unspecified) : inactive; negative
CN(C)c1ccc(N(C)C)cc1 : inactive; negative
CCCCOCCOCCSC#N : inactive; negative

q: // returns reported mutagenic call for input CC1CCCC1
a: inactive; negative

q: // returns reported mutagenic call for input Nc1c(Cl)cc(Cl)cc1Cl
a: inactive; negative

q: // returns reported mutagenic call for input CCCCCCCCCCCCCCCCC1CO1 (stereo unspecified)
a: inactive; negative

q: // returns reported mutagenic call for input O=[N+]([O-])c1ccccc1Nc1ccccc1
a: inactive; negative

q: // returns reported mutagenic call for input CCN(CC)c1ccc2c(-c3ccccc3C(=O)O)c3ccc(=[N+](CC)CC)cc-3oc2c1
a: inactive; negative

q: // returns reported mutagenic call for input N#CC(O)c1ccccc1 (stereo unspecified)
a: inactive; negative

q: // returns reported mutagenic call for input CCCSC(=O)Cl
a: inactive; negative

q: // returns reported mutagenic call for input ClCc1ccccc1
a: inactive; negative

q: // returns reported mutagenic call for input Cc1ccccc1C#N
a: inactive; negative

q: // returns reported mutagenic call for input CC1OC1C (stereo unspecified)
a: inactive; negative

q: // returns reported mutagenic call for input COc1ccc(N=[N+]([O-])c2ccc(OC)cc2)cc1
a: inactive; negative

###

# Test system: CCRIS mutagenicity, Ames/micronucleus/aberration tests
# experimentDescription: CCRIS mutagenicity studies
# statedConditions: Test System: AMES SALMONELLA TYPHIMURIUM; Strain/Indicator: TA98; Metabolic Activation: NONE; Method: STANDARD PLATE
Active and inactive are the calls of the source. How the calls were made is not given here.
Permitted responses: active, inactive

q: # outcome recorded in this test, key = O=[N+]([O-])c1ccc2c3ccccc3c3c([N+](=O)[O-])ccc4ccc1c2c43
a: active

q: # outcome recorded in this test, key = Clc1ccc2oc3ccccc3c2c1
a: active

q: # outcome recorded in this test, key = O=C(/C=C/c1ccccc1)c1ccccc1
a: inactive

q: # outcome recorded in this test, key = O=S1(=O)c2cccc3ccc4c5ccccc5cc1c4c23
a: active

q: # outcome recorded in this test, key = O=[N+]([O-])C1=Cc2cccc3cccc1c23
a: active

###

# Test system: CCRIS mutagenicity, Ames/micronucleus/aberration tests
# experimentDescription: CCRIS mutagenicity studies
# statedConditions: Test System: AMES SALMONELLA TYPHIMURIUM; Strain/Indicator: TA1537; Metabolic Activation: HAMSTER, LIVER, S-9, AROCLOR 1254 (30%); Method: PREINCUBATION
The source made the active and inactive calls. The rule behind the calls is not given here.
Permitted responses: 1 for active, -1 for inactive

A selection of reference data follows.
CCCCCCCCCCCCCCCCCCCC : -1
COc1ccc(N=[N+]([O-])c2ccc(OC)cc2)cc1 : 1
CC(C)CCCCCOC(=O)C[S][Sn]([CH3])([S]CC(=O)OCCCCCC(C)C)[S]CC(=O)OCCCCCC(C)C : -1

q: # outcome recorded in this test, key = CCCCCCCCCCCCCCCCC1CO1 (stereo unspecified)
a: -1

q: # outcome recorded in this test, key = CCCCOC(C)=O
a: -1

Values were extracted from PubChem BioAssay AID1259407.
